TARGET_UNDER_TEST: KRas G12C mutant (Homo sapiens (Human), UniProt P01116, G12C)
Sequence (P01116-2 other isoform, or with tags, fused parts or gaps G12C): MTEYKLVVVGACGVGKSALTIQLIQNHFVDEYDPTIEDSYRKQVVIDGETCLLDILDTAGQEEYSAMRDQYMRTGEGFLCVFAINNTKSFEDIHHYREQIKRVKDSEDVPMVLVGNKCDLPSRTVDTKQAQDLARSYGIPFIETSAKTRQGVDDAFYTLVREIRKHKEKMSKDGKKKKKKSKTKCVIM
METHOD: Ras GTP binding domain inhibition assay (labeled GTP)
CONDITIONS: 20 μM; read-out: KRas G12C % Inh.
Entries and their measured inhibition at 20 µM follow.

* O=C(Nc1nc(-c2ccccn2)cs1)c1ccccn1 [drawing 2573] | 51 to 75%
* OCCOCCNc1nc(-c2ccccn2)nc2scc(-c3ccccc3)c12 [drawing 2609] | 25 to 50%
* Cc1sc2nc(-c3ccccn3)nc(NCCCO)c2c1-c1ccccc1 [drawing 2610] | 51 to 75%
* O=C(Nc1nnc(-c2ccccn2)[nH]1)c1ccn(-c2cccc(Cl)c2)n1 [drawing 2559] | 1 to 25%
* O=C(Nc1nc(-c2ccccn2)cs1)c1cccc(F)c1 [drawing 2567] | 25 to 50%

For the compound CN(Cc1nnc(-c2ccccc2Cl)o1)Cc1ccccc1C(F)(F)F [drawing 2482] , what inhibition at 20 µM is on record?
1 to 25%

Now the compound Cc1cccc(CN(Cc2ccccn2)Cc2nccn2C)c1 [drawing 2613]
25 to 50%

Now the compound CC(O)CNc1nc(-c2ccccn2)nc2scc(-c3ccccc3)c12 (centres unmarked) [drawing 2607]
1 to 25%

Now the compound COc1ccc(OCc2nc(CNCCc3nnc4n3CCC4)cs2)cc1 [drawing 2565]
25 to 50%

Now the compound CS(=O)(=O)N1CCCc2cc(C(=O)Nc3nnc(-c4ccccn4)[nH]3)ccc21 [drawing 2561]
25 to 50%

Now the compound COCC(C)Nc1nc(-c2ccccn2)nc2sc(C)c(-c3ccccc3)c12 (centres unmarked) [drawing 2604]
25 to 50%

Now the compound CS(=O)(=O)Cc1ccc(C(=O)Nc2nc(-c3ccccn3)cs2)cc1 [drawing 2572]
25 to 50%

Now the compound COc1ccc(CCC(=O)N2CCCc3c(O)nc(-c4ccccn4)nc32)cc1 [drawing 2640]
51 to 75%

* * *

Tested on: IL6 production in RAW 264.7 macrophage cell line
METHOD: Mouse IL6 quantification assay (LPS-stimulated macrophages, ELISA)
Type: cell-based
CONDITIONS: RAW264.7, RAW 264.7 murine leukemia virus transformed macrophage cell lines, LPS stimulation, read-out: IL-6 % Inhibition at 30 μM
Entries and their measured inhibition at 30 µM follow.

Answered examples (5):
• N#CCc1ccc(OCC(=O)Nc2nnc(-c3ccccn3)[nH]2)cc1 [drawing 1998] = 0%
• CC(Oc1ccc(C(=O)Nc2nnc(-c3ccccn3)[nH]2)cn1)c1ccccc1 (stereo not shown) [drawing 1968] = 1 to 25%
• O=C(Nc1nc(-c2ccccn2)cs1)c1ccncc1 [drawing 2019] = 26 to 50%
• Cc1ccc(-c2ccc(Oc3ccc(C(F)(F)F)cn3)c(C)c2)cc1 [drawing 2056] = 0%
• CN(CCc1ccncc1)C(=O)c1csc2c(O)nc(N)nc12 = 1 to 25%

For the compound CCc1ccccc1OCC(=O)Nc1nnc(-c2ccccn2)[nH]1 [drawing 1982] , what inhibition at 30 µM is on record?
26 to 50%

Now the compound Oc1nc(-c2ccccn2)nc2c(Br)csc12 [drawing 2100]
76 to 100%

Now the compound COCCNc1nc(-c2ccccn2)nc2c1c(-c1ccccc1)nn2-c1ccccn1 [drawing 2365]
76 to 100%

Now the compound O=C(Cc1c[nH]c2ccccc12)Nc1nnc(-c2ccccn2)[nH]1 [drawing 1931]
26 to 50%

* * *

TARGET_UNDER_TEST: KRas G12C/Q61H double mutant (Homo sapiens (Human), UniProt P01116, G12C/Q61H)
Sequence (P01116-2 other isoform, or with tags, fused parts or gaps G12C/Q61H): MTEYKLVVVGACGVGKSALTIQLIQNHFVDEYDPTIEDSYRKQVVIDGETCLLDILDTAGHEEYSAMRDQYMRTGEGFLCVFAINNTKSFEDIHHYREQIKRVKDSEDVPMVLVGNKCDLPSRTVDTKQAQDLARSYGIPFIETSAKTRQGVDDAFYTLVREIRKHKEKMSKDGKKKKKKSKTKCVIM
METHOD: Ras GTP binding domain inhibition assay (labeled GTP)
CONDITIONS: 20 μM compound; KRas G12C/Q61H double mutant; read-out: % Inhibition at 20 μM of K-Ras mutant and wild-type protein, KRas G12C Q61H
Entries and their measured inhibition at 20 µM follow.

Answered examples (4):
• Oc1nc(-c2ccccn2)nc2cc(-c3ccccc3Cl)sc12 [drawing 3556] = 25 to 50%
• Oc1nc(-c2ccccn2)nc2cc(-c3ccccc3)sc12 [drawing 3562] = 25 to 50%
• O=c1[nH]c(-c2ccccn2)nc2c([C@@H]3O[C@H](CO)[C@@H](O)[C@H]3O)csc12 [drawing 3527] = 25 to 50%
• Cc1ccc(-c2cc3nc(-c4ccccn4)nc(O)c3s2)cc1 [drawing 3555] = 1 to 25%

For the compound NC(=O)C1CCCN1C(=O)c1cccc(-c2cc3nc(N)nc(O)c3s2)c1 (centres unmarked) [drawing 3544] , what inhibition at 20 µM is on record?
1 to 25%

* * *

Entries and their measured inhibition at 20 µM follow.
TARGET_UNDER_TEST: Rho-A (Homo sapiens (Human), UniProt P61586)
Sequence (P61586 whole entry): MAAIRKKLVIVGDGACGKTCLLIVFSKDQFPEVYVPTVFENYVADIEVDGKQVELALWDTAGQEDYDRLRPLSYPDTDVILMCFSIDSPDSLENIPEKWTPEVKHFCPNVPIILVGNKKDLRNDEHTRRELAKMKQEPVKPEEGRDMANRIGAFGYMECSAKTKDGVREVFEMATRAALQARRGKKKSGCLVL
METHOD: Rho inhibition assay (labeled GTP)
Type: binding
CONDITIONS: read-out: Rho-A % Inh.

Answered examples (4):
- COc1nc(-c2ccccn2)nc2c(C3CCCC3)csc12 [drawing 3789]: 51 to 75%
- Cc1sc2c(O)nc(-c3nccn3C)nc2c1-c1cccc(C(F)(F)F)c1 [drawing 3917]: 0%
- COc1cccc(CC2CN(C(=O)c3csc4c(O)nc(-c5ccccn5)nc34)CCN2)c1 (centres unmarked) [drawing 3702]: 51 to 75%
- Cc1sc2c(O)nc(-c3ccccn3)nc2c1-c1ccncc1 [drawing 3816]: 25 to 50%

Now consider the entry below.
For the molecule Oc1nc(-c2ccccn2)nc2c(-c3ccc(CN4CCOCC4)cc3)csc12 [drawing 3754] , what inhibition at 20 µM is on record?
25 to 50%

* * *

Entries and their measured inhibition at 20 µM follow.
TARGET_UNDER_TEST: KRas Q61H mutant (Homo sapiens (Human), UniProt P01116, Q61H)
Sequence (P01116-2 other isoform, or with tags, fused parts or gaps Q61H): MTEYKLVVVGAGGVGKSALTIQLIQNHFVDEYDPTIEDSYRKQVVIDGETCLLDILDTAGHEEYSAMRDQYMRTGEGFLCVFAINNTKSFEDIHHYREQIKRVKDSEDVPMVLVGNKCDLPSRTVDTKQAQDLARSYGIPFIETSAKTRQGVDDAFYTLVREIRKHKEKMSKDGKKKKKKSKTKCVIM
METHOD: Ras GTP binding domain inhibition assay (labeled GTP)
CONDITIONS: 20 μM compound; KRas Q61H; read-out: % Inhibition at 20 μM of K-Ras mutant and wild-type protein, KRas Q61H
Respond with the bare value in %.

* COc1cnc(C(C)(C)N)nc1O [drawing 3491] | 0

Now consider the entry below.
For the molecule COc1nc(-c2ccccn2)nc(Oc2cccc(C(F)(F)F)c2)c1OC [drawing 3552] , what inhibition at 20 µM is on record?
0

* * *

System: MIA-PACA2 pancreatic cancer cell lines
METHOD: Cell proliferation assay (CellTiter 96 AQueous One)
Type: cell-based
CONDITIONS: Homo sapiens, MIA PaCa-2; at 30 μM, MIA-PACA2
MEASURED_PARAMETER: inhibition at 30 µM

Answered examples (5):
• CC(Oc1cccc(C#N)c1)C(=O)Nc1nnc(-c2ccccn2)[nH]1 (stereo not drawn) [drawing 1424] = 76 to 100%
• Oc1nc(-c2ccccn2)nc2sccc12 [drawing 1590] = 76 to 100%
• O=C(CN1CCN(c2nc(-c3ccccn3)nc3scc(-c4ccccc4)c23)CC1)NC1CC1 [drawing 1621] = 76 to 100%
• Cc1ccc(-c2ccc(Oc3ccc(C(F)(F)F)cn3)c(C)c2)cc1 [drawing 1526] = 76 to 100%
• Cc1sc2[nH]c(-c3ccccn3)nc(=O)c2c1-c1ccccc1 [drawing 1493] = 76 to 100%

For the compound Cc1c(C(=O)N(C)C)sc2[nH]c(-c3ccccn3)nc(=O)c12 [drawing 1497] , what inhibition at 30 µM is on record?
51 to 75%

Now the compound Cn1cc(-c2nc(C(=O)Nc3nnc(-c4ccccn4)[nH]3)cs2)cn1 [drawing 1403]
76 to 100%

Now the compound O=C(NCCc1cccnc1)c1csc2nc(-c3ccccn3)nc(N3CCOCC3)c12 [drawing 1638]
76 to 100%

Now the compound COc1ccnc(-c2nc(O)c3c(C(F)(F)F)csc3n2)c1 [drawing 1709]
76 to 100%

Now the compound COc1cc(CCNC(=O)c2csc3nc(-c4ccccn4)nc(N4CCOCC4)c23)ccn1 [drawing 1641]
51 to 75%

Now the compound O=C(CCc1nn[nH]n1)Nc1nc(-c2ccccn2)nc2sccc12 [drawing 1766]
51 to 75%

Now the compound O=C(c1csc2c(O)nc(-c3ccccn3)nc12)N1CCOC(c2ccccc2Cl)C1 (stereo not drawn) [drawing 1662]
76 to 100%

Now the compound Cc1sc2c(O)nc(-c3ccccn3)nc2c1-c1cccnc1 [drawing 1790]
76 to 100%

* * *

Entries and their measured inhibition at 20 µM follow.
TARGET_UNDER_TEST: KRas G12D mutant protein (Homo sapiens (Human), UniProt P01116, G12D)
Sequence (P01116-2 other isoform, or with tags, fused parts or gaps G12D): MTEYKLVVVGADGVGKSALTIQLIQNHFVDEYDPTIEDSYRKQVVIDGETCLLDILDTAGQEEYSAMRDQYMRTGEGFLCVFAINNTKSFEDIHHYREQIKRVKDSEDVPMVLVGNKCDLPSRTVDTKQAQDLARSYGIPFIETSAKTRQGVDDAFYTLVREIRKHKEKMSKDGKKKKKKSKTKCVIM
METHOD: Ras GTP binding domain inhibition assay (labeled GTP)
CONDITIONS: 20 μM; read-out: KRas G12D % Inh.

Answered examples (2):
* O=C(Nc1nnc(-c2ccccn2)[nH]1)c1ccn(-c2ccccc2)n1 [drawing 2464] | 76 to 100%
* Cc1cccc(CN(Cc2ccccn2)Cc2nccn2C)c1 [drawing 2613] | 51 to 75%

Now consider the entry below.
For the compound O=C(Nc1nnc(-c2ccccn2)[nH]1)C1CC(=O)N(Cc2cccc(C(F)(F)F)c2)C1 (stereo not drawn) [drawing 2547] , what inhibition at 20 µM is on record?
51 to 75%
